Entry source: patent US20240165097A1

test-method-notes: Example C: HTL0018318 plasma and urine pharmacokinetics
Type: in vivo, human
test-parameters: human, plasma, oral, 25 mg, 25 mg only, 5th dose; Tau = 24 hrs; read-out: AUC0-tau (mean)
property-name: AUC (ng·h/mL)
Give bare numbers, in ng·h/mL.

Give the measured AUC of CCOC(=O)N1C2CCC1CC(N1CCC3(CC1)CNC(=O)C3)C2 (stereo not shown) [HTL0018318] .
1710

---

test-method-notes: Example C: HTL0018318 plasma and urine pharmacokinetics
Format: in vivo, human
test-parameters: human, plasma, oral, 15 mg + DPZ, 1st dose; read-out: AUC0-inf (mean)
property-name: AUC(0-inf) (ng·h/mL)
Give bare numbers, in ng·h/mL.

For the compound shown here, CCOC(=O)N1C2CCC1CC(N1CCC3(CC1)CNC(=O)C3)C2 (stereo not shown) , give the reported AUC(0-inf).
1120
